Assay details: soluble on expression in E. coli; label from the status in PepcDB or PDB records

{"columns": ["Sequence entry", "soluble on expression in E. coli"],
 "data": [
  ["MAEVFVGPVAQGYASGEVTVLLASPRSFCAGVERAIETVKRVLDVAEGPVYVRKQIVHNTVVVAELRDRGAVFVEDLDEIPDPPPPGAVVVFSAHGVSPAVRAGADERGLQVVDATCPLVAKVHAEAARFAARGDTVVFIGHAGHEETEGTLGVAPRSTLLVQTPADVAALNLPEGTQLSYLTQTTLALDETADVIDALRARFPTLGQPPSEDICYATTNRQRALQSMVGECDVVLVIGSCNSSNSRRLVELAQRSGTPAYLIDGPDDIEPEWLSSVSTIGVTAGASAPPRLVGQVIDALRGYASITVVERSIATETVRFGLPKQVRAQ", "not soluble"],
  ["MPLKLTTYYQGSEIPDFPGTNTFHSKELFQIYEETPGYTPLLIMASEDGKPVARLLAAIRKSIRMFPPAFIKRCEIYGTGEYLTAEADKERIFGEMLEHLTTEALRNSFLIEFRNLENAMFGYKYFRSNRYFPVNWLRVRNSLHGIENAEQRFSPSRIRQIKKGLKNGAKVDEARTVEEIREFSNMLRHLYSSRIRKHFPNIIFFQHMDTRLIHSRQAKIFIVRYKDKIIGGSACIYSGNDAYLWFSGGMRKTYALQYPGILAVWKALQDAHQNGFRHMEFMDAGLPFKKHGYRDFVLRFGGKQSSTRRWFRFRWQWLNDLLIKIYV", "not soluble"],
  ["AHQYGVKSYIGIPRSYSHDRTDFMQSEQAEILYYDGKYEETVEFIRDFSKDNGLYDASPGSANSSIDKMMYATIAFEIYEALLTVPSYVIVPVGNGTTLAGIYHGFRRMYDEGVIDHLPRMVGVSTSGGNPIVDSWRHGYSRVVDLNPEEIRETSINEPLVSYRSFDGQDALSAIRETHGRAMYVSDEEMVYYSNLIYSAEGLNPLPASASAVAAIGHLKVKQDETVVSVITGRQI", "not soluble"]
]}

###

Assay details: soluble on expression in E. coli; label from the status in PepcDB or PDB records

{"columns": ["Sequence entry", "soluble on expression in E. coli"],
 "data": [
  ["MDTESFKREFLPYHRKLYCVAYRLLENAADAEDLVQEAYLKLWDKREGLSVISNPEAFSVTLVKNMCFDLLRSGKYVLSRQSVELSAAQDVFQPDNLEAREGVRQIKDIIAHLPEQQQRIINMRDIKGCSYEEIEQVTGLNSINVRVLLSRARKKIREEFNKWNNYESRRN", "not soluble"],
  ["MGSDKIHHHHHHMLQLSEFEPEVLYAFPFRNEHPGTYVYHQHDFLELSIMLEGYSDYNVEGQWRRVVAGQALLFNPGIHHQETQPPHTQSLQLHIGFRHIALPGQVPNHLPFKDALISLDDYRAEFMANAQRIVAESQRPTAFGHALLIQAMVIEQLCWLLRSLPENSVSNDYTELHQGNVSRDQQALVNAATYYLDVHYNEDLTLGTVAASLHVSAAYLSRTFKAIQGETPISYLTRLRMQRAKQLLMQEAITVRQVAHAVGYQDPYYFSKVFKRYFGAAPTLIER", "not soluble"],
  ["MKLLKTKNCLYYRNGDNKLSEYQLLTQFNPAFINKKIKMCEFQIESMYHMSASTTTCDEIMGVVSVSYPIEKLVIKIIETKAGLQNYKNRSINNMALLKKVLNHYTEKEQKQVVKYMRSNGRYKPYNVIERLQVDLYQASIKQRSERQKQRNTAIENSKIARVNAYHQSSYVKVV", "not soluble"]
]}

###

Assay details: soluble on expression in E. coli; label from the status in PepcDB or PDB records

{"columns": ["Sequence entry", "soluble on expression in E. coli"],
 "data": [
  ["SVGTSCIPGMAIPHNPLDSCRWYVSTRTCGVGPRLATQEMKARCCRQLEAIPAYCRCEAVRILMDGVVTSSGQHEGRLLQDLPGCPRQVQRAFAPKLVTEVECNLATIHGGPFCLSLLGAGE", "soluble"],
  ["MIVPALIGSLPRPIGLAKKIELYSIGRLSEEKLEEAYRSYTRKAFENLKKARIKVITDGLYRWDDIFNPLIRFIDGVEVNGLFKFYENNFFYRSPVVRGELSLKENPLPGWISIAQEIKEDVYPEAELKAVLPGPVTLAYHSINEYYKDLNELTEAYATVLRELIKELDVKIMELQEPSLAAELSKATRESEEHVSKEVAKKVIEDLARVKKLWVVTYFGTPQVVPKDVILNIDLIEGNVPDEVKGEVGLGIVNARETKMERADRLKDKLRKYIRKFEKVYVTPNTLLDFLPERVAWKKLKLLGRLGGELEHHHHHH", "not soluble"],
  ["MFDYTDFPEQRQSKIRLILSEEGKVVCTQLSRELNVSEHTIRRDLKELAQSGACKRVYGGAVSLPPEAIDFASRATIDAAQKDRIAQAVIPLIKPNGCVFFDTGTTNLAVAKQIPAGLKFTAVCNSPIIAAELMQHQDVEVIVLGGRIQKEVGGAIGIDTLRQLEKMYFDQCLLGGCAFDANEGLTVFEYDDAEFKKCLVTRSSEVIVALTANKISALTRYRVAECDEITTLVTDDEISPASQSVLKEKNLDVIIARLEHHHHHH", "soluble"],
  ["MGSDKIHHHHHHMAEAGTLAVLVPEITIEELFTAQGADLSRRSPRQDMVDLNIKLLAEARELAKVSIIWQEVKVLGSQQQELYLEGGLTLRGSLLPKVLGPAESAVLFAMTIGEGIDERVKEYTHQGKTLEAFILDAAGSAILAKAAYHAISELAGLYKEKQLDTTFSLGPGHSYWKGLEDVRTIIDYLKGEQIGISLTDSNLMLPKKSIAMVMGVGSNLPDFKGKTHCDFCHLKGSCTMRELGVNNC", "not soluble"],
  ["MAHHHHHHMLRLTQAVLRVQSHQKKRAQHPNAGTRFGRVYNRGFVRYGFGGFGMSVYSSKKDRTFKVMPVPPPPPATTAVEQRDDFADNRGLSATTRTLSPTFRMFALEDGGVLVSHPSHAQIMRWNQRVHTEEGKAANSTVMDEYVNSRIQAIIADNTIENTSLSQWRKAHMWNVIKSHGKLQRRWGTPDFVMGARSTLYNN", "not soluble"],
  ["MVVQVQPVEVDVESLVTRVFLKAIDLLGGLHKLAEYRTLTWLPSLARAAFVIVYREEFLKTEEEIAELVGLTRQTVRNILRADPELALYKIQHIDELTKEEKKELRVHTAGGIAKLAYKKVKEGEEPKVFLEFCTMAAEALEVPWAYLLLKKIKGTHFPINSPEELKEKVKGVVIKGMPAEEVVEKIEYPVKNPADLLHKIKIHLKMMGVE", "soluble"],
  ["MAHHHHHHMQQQPRPVVAQYAYIELLPLRYTGPAPPPAPACMDPTPDEQYRRGVAEKRAALKQKEARRQMSSSGSGMLASLKSAVSQAVMTMEKGAADVSTRTESQVRQLEYQYDCDRFNLHFHELAENGEVLLADYRCSAMHSGLRVNGHVQITPHYLCFLAETTSSIAKTTDAVMGVFVAARHPTSANDEPRNRPVGIKQVIALADIVSIQPSVVLESI", "soluble"],
  ["MKCVFVTVGTTSFDDLIACVSAPDSLQKIESLGYNRLILQIGRGTVVPEPFSTESFTLDVYRYKDSLKEDIQKADLVISHAGAGSCLETLEKGKPLVVVINEKLMNNHQLELAKQLHKEGHLFYCTCSTLPGLLQSMDLSTLKCYPPGQPEKFSAFLDKVVGLQK", "soluble"],
  ["MGSDKIHHHHHHMSVPTTMFRLTGRDYPPAKLSHASLIIIDAQKEYLSGPLKLSGMDEAVANIARLLDAARKSGRPIIHVRHLGTVGGRFDPQGPAGQFIPGLEPLEGEIVIEKRMPNAFKNTKLHETLQELGHLDLIVCGFMSHSSVSTTVRRAKDYGYRCTLVEDASATRDLAFKDGVIPAAQIHQCEMAVMADNFACVAPTASLI", "not soluble"]
]}

###

Assay details: soluble on expression in E. coli; label from the status in PepcDB or PDB records

{"columns": ["Sequence entry", "soluble on expression in E. coli"],
 "data": [
  ["MVASSCLSMNDHHLLYQNISQDLDLGALLSSEVIQSLWGGYGELVRLIFAKRSVIVKHVKLPKPSEHPRGWNTDRSHQRKLHSYQVEVSWYAHFSGVMDSHCRVPQGLKTFQSENEWLIVMEDLAEAGFPKVITDAKLEHLRACLTWLANFHARYIGVCSDKLWHTGTYWHLATRPDELEALQDTELKKAAQLIDQTLSQAKFKTLVHGDAKLANFCFEQDELSVAAVDFQYVGHGCAMKDVALFMSSAVKPERCAEMEVWVLDTYFAKLQQALMVYQPNLDPDEVEREWRPLFAVAWADFQRFVKGWSPDHWKINPYTEALTRRALAYLRK", "not soluble"],
  ["MGSDKIHHHHHHVVTPEDSPRYPYGNCLYVEDDIPAVLDLGAGGRAFQEIPCEKVQLALISHSHFDHLHGDSFFPRAGLYAGKEESKTYSDENEYLKFHGYELWAEMMPGIKRVAFSEVKPLPDDVPVKPGFRYIPLAGIFKDMERFQLGKTEITAIHLPGHTTGHYGFWIEKEGILFSGDMDLVVAGPWYSSNSADIGQLVSSVQRIREINPGLIVPSHRRLIFDKIEKRLDQYIGVVFKRQERILDLLKEAHTIDELLEYQMVFHGRRDIYLLFWEKMTLRNHIRFLLWEGMVEEVEKGRYKRC", "not soluble"],
  ["MEDIENIEEDEYGFSRNYFLAKELGGASKRSAHKLSDIHIVDEQELRETASTIEMKHSKEISELMSDYKTMYSKWVFELRCGFGLLMYGFGSKKALVEDFASASLTDYSVVVINGYLPSVNLKQVLLALAELLSELLKCKRKSSGSLSKGQETFPSRSMDDILSFLHGPQSGDKDCFICVVVHNIDGPALRDPESQQTLARLSSCSHIRLVASIDHVNAPLLWDKKMVHKQFNWLWHHVPTFAPYNVEGVFFPLVLAQGSTAQTAKTAAIVLQSLTPNGQNVFKILAEYQLSHPDEDGMPTDDLYSASRERFFVSSQVTLNSHLTEFKDHELVKTKRNSDGQECLNIPLTSDAIRQLLLDLNQ", "not soluble"]
]}
